Target: PIK3CD (Human) (UniProt O00329)
Sequence (O00329 whole entry, looked up): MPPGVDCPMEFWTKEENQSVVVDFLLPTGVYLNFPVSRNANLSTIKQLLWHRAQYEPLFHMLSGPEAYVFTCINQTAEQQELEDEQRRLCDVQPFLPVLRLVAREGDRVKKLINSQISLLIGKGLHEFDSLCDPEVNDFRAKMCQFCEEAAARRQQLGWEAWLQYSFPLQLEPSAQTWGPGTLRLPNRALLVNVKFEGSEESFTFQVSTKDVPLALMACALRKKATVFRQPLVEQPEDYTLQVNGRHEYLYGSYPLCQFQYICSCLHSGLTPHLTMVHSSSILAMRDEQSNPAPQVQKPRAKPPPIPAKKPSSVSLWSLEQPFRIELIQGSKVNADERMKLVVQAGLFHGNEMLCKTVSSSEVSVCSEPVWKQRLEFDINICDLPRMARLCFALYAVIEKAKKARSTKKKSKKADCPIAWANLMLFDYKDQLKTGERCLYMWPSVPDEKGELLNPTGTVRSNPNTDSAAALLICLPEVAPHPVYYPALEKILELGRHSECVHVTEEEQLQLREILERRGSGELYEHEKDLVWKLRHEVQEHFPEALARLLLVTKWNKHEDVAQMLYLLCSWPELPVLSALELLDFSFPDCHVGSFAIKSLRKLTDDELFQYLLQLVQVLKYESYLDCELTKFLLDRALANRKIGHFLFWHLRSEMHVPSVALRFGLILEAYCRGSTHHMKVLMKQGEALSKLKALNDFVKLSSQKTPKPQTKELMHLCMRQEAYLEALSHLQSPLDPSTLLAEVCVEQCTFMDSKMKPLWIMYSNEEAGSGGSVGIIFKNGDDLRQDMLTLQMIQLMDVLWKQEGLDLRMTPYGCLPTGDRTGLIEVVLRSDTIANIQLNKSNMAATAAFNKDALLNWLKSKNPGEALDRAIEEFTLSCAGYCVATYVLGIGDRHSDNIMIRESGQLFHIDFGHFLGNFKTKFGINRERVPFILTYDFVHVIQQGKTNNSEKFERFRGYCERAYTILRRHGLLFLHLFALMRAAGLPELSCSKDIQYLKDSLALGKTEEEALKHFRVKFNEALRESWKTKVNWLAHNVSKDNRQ
Experiment: Inhibition of PIK3CD Kinase Activity (Scintillation Proximity Assay)
readout kind: IC50

Past entries and their recorded results:
CCc1cccc2nc(C(C)Nc3ncnc4[nH]cnc34)c(-c3cc(F)cc(F)c3)c(=O)n12 (stereo not drawn) | 100 to 500 nM
CC(Nc1ncnc2[nH]cnc12)c1nc2scc(C(F)(F)F)n2c(=O)c1-c1cccc(F)c1 (stereo not drawn) | 50 to 100 nM

# input Supply reported IC50 belonging to this compound: CCC(Nc1ncnc2[nH]cnc12)c1nc2cccc(C)n2c(=O)c1-c1cc(F)cc(F)c1 (stereo not drawn)
# output 50 to 100 nM

# input Supply reported IC50 belonging to this compound: Cc1cccc2nc(C(C)Nc3nc(N)nc4[nH]cnc34)c(-c3ccccc3)c(=O)n12 (stereo not drawn)
# output < 50 nM

# input Supply reported IC50 belonging to this compound: Cc1cccc(-c2c(C(C)Nc3ncnc4[nH]cnc34)nc3cccc(C)n3c2=O)c1 (stereo not drawn)
# output 100 to 500 nM

# input Supply reported IC50 belonging to this compound: Cc1csc2nc(C(C)Nc3ncnc4[nH]cnc34)c(-c3cccc(F)c3F)c(=O)n12 (stereo not drawn)
# output 50 to 100 nM

# input Supply reported IC50 belonging to this compound: Cc1csc2nc(C(C)Nc3nc(N)nc4[nH]cnc34)c(-c3cncc(F)c3)c(=O)n12 (stereo not drawn)
# output 50 to 100 nM

# input Supply reported IC50 belonging to this compound: CC(Nc1nc(N)nc2[nH]cnc12)c1nc2sccn2c(=O)c1-c1ccccc1 (stereo not drawn)
# output 100 to 500 nM

# input Supply reported IC50 belonging to this compound: Cc1cccc2nc(C(C)Nc3nc(N)nc4[nH]cnc34)c(-c3cccc(F)c3)c(=O)n12 (stereo not drawn)
# output < 50 nM

# input Supply reported IC50 belonging to this compound: CC(Nc1nc(N)nc2[nH]cnc12)c1nc2ccccn2c(=O)c1-c1cc(F)cc(F)c1 (stereo not drawn)
# output 100 to 500 nM

# input Supply reported IC50 belonging to this compound: Cc1csc2nc(C(C)Nc3ncnc4[nH]ccc34)c(-c3cc(F)cc(F)c3)c(=O)n12 (stereo not drawn)
# output 100 to 500 nM

# input Supply reported IC50 belonging to this compound: Cc1ccccc1-c1c(C(C)Nc2ncnc3[nH]cnc23)nc2cccc(C)n2c1=O (stereo not drawn)
# output 100 to 500 nM

# input Supply reported IC50 belonging to this compound: Cc1cccc2nc(C(C)Nc3ncnc4[nH]cnc34)c(-c3cccc(F)c3)c(=O)n12 (stereo not drawn)
# output < 50 nM
